# assayOverview: Drug metabolism in human liver microsomes assessed as metabolic rate per mg protein at 1 uM measured at 3 to 30 mins by LC-MS/MS analysis
# Assay type: ADME, microsome
Some compounds, each annotated with its measured Drug metabolism.
Please state the figure in pmol/min; there is no need to write the unit.

Below, 7 compounds whose answers are already recorded.
| compound | Drug metabolism (pmol/min) |
| --- | --- |
| Cc1cc(OC[C@H](F)CN2CCN(c3ccc(Cc4ccc(F)cc4)cc3)CC2)cc(C)n1.Cl | 71 |
| Cl.Cl.Cl.Fc1ccc(Cc2ccc(N3CCN(CC(F)COc4ccc5ncccc5c4)CC3)cc2)cc1 (centres undefined) | 79 |
| Cl.Fc1ccc(Cc2ccc(N3CCN(CCCOc4ccc5ncccc5c4)CC3)cc2)cc1 | 47 |
| Cl.Cl.Cl.Fc1ccc(Cc2ccc(N3CCN(CC(F)(F)COc4ccc5ncccc5c4)CC3)cc2)cc1 | 34 |
| OC(COc1ccc2[nH]ccc2c1)CN1CCN(c2ccc(Cc3ccc(F)cc3)cc2)CC1 (centres undefined) | 79 |
| NS(=O)(=O)c1ccc(OCC(F)CN2CCN(c3ccc(Cc4ccc(F)cc4)cc3)CC2)cc1 (centres undefined) | 12 |
| NC(=O)c1ccc(OCC(F)CN2CCN(c3ccc(Cc4ccc(F)cc4)cc3)CC2)cc1 (centres undefined) | 34 |

Now for a further compound.
stdin: Would you mind telling me what Drug metabolism value was observed for Cc1cc(S(N)(=O)=O)c(C)c(C)c1OCC(F)CN1CCN(c2ccc(Cc3ccc(F)cc3)cc2)CC1 (centres undefined) ?
stdout: 32
